Test system: OVCAR-4
Test method notes: NCI tumour cell line growth inhibition, 48 h
Counter-ions that a name gives are not always drawn. Activity calls are given as the source filed them. Rule as the data show it: active = GI50 up to about 1.1 µM and inactive = higher.
Quick reference for GI50 among some compounds

Example compounds with recorded GI50:
[[record]]
compound = "CCOC(=O)c1c(N2CCOCC2)[nH]c(=O)c(C(c2c(Cl)cccc2Cl)c2c(O)c(C(=O)OCC)c(N3CCOCC3)[nH]c2=O)c1O"
recorded_result = "9.84 µM (inactive)"

[[record]]
compound = "O=C1c2c(O)cccc2-c2nn(CCNCCO)c3ccc(NCCNCCO)c1c23 [LOSOXANTRONE HYDROCHLORIDE]"
recorded_result = "0.605 µM (active)"

[[record]]
compound = "Nc1nc(N)c2nc(CNc3ccc(C(=O)O)cc3)[nH]c2n1"
recorded_result = "> 100 µM (inactive)"


Now take the following compound into account.
Look up GI50 for this compound: COc1cc2cc(C(=O)N3CC(CCl)c4c3cc(NC(=O)C(C)(C)c3ccccc3[N+](=O)[O-])c3ccccc43)[nH]c2c(OC)c1OC (centres undefined)
3.08 µM (inactive)
